Experimental system: Rho-A (Homo sapiens (Human), UniProt P61586)
Sequence (P61586 whole entry): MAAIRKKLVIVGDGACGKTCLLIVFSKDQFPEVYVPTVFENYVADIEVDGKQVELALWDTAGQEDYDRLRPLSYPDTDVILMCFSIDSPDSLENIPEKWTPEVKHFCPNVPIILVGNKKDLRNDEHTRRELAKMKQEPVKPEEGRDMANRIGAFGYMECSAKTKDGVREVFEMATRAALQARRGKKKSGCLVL
Protocol: Rho inhibition assay (labeled GTP)
Format: binding
Condition details: read-out: Rho-A % Inh.
Listed here are compounds together with their documented inhibition at 20 µM.

# Compound, inhibition at 20 µM
rows = [
    ("CN1CCN(c2nc(-c3ccccn3)nc3scc(C(=O)NCCc4cnc(O)nc4)c23)CC1 [drawing 3771]", "51 to 75%"),
    ("COCCNc1nc(-c2ccccn2)nc2sc(-c3ccccc3)c(-c3ccccn3)c12 [drawing 3938]", "25 to 50%"),
    ("COc1nc(-c2ccccn2)nc(Oc2cccc(C(F)(F)F)c2)c1O [drawing 3883]", "1 to 25%"),
    ("Cc1ccccc1C1CN(C(=O)c2csc3c(O)nc(-c4ccccn4)nc23)CCN1 (centres unmarked) [drawing 3664]", "76 to 100%"),
    ("CNS(=O)(=O)CCCNC(=O)c1csc2nc(-c3ccccn3)nc(N3CCOCC3)c12 [drawing 3680]", "51 to 75%"),
    ("COc1nc(-c2ccccn2)nc2c(C3CC3)csc12 [drawing 3808]", "0%"),
    ("CC(C)(C)c1sc2c(O)nc(-c3ccccn3)nc2c1Br [drawing 3872]", "25 to 50%"),
    ("COC1CCN(c2nc(-c3nccn3C)nc3sc(-c4ccccc4)c(-c4ccccc4)c23)C1 (centres unmarked) [drawing 3889]", "0%"),
]
